# subject-of-test: T1, human CD33 antigen (human, UniProt P20138 18-259, limits assumed)
# T1 construct: whole entry named; also called Siglec-3
# protocol-text: SPR (Biacore T200), 37 C; KD at 10 uM MTX / KD at 0 uM MTX
Below, each entry is listed alongside its reported Ratio: KD with MTX / KD without MTX.
Answer as a number with no unit attached.

P04_C05 scFv-Fc fusion (scFv, V domains shown, Tested as scFv-Fc fusion) VH: QVQLVESGGGLVQAGGSLRLSCAASRRSSRSWAMHWVRQAPGKGLEWVAVISYDGRLKYYADSVKGRFTISRDNAEYLVYLQMNSLRAEDTAVYYCAAGLPWTDYWGQGTLVTVSS VL: QSVLTQPPSASGTPGQRVTISCSGSNSNIGSNYVSWYQQLPGTAPKLLIYSNNQRPSGVPDRFSGSKSGTSASLAISGLRSEDEADYYCAAWDDRLSVVFGTGTKLTVL; 12

Request: Fill in Ratio: KD with MTX / KD without MTX for record P02_E11 scFv-Fc fusion (scFv, V domains shown, Tested as scFv-Fc fusion) VH: QVQLVESGGGLVQAGGSLRLSCAASRRSSRSWAMHWVRQAPGKGLEWVAVISYDGRLKYYADSVKGRFTISRDNAEYLVYLQMNSLRAEDTAVYYCAAEASTDNGLDYWGQGTLVTVSS VL: DIQMTQSPSSLSASVGDRVTITCRASQTISRHLNWYQQKPGKAPKLLIYSASSLASGVPSRFSGSGSGTDFTLTISSLQPEDFATYYCQQSHSAGTFGQGTKVEIK
Result: 221

Request: Fill in Ratio: KD with MTX / KD without MTX for record P02_H01 scFv-Fc fusion (scFv, V domains shown, Tested as scFv-Fc fusion) VH: QVQLVESGGGLVQAGGSLRLSCAASRRSSRSWAMHWVRQAPGKGLEWVAVISYDGRLKYYADSVKGRFTISRDNAEYLVYLQMNSLRAEDTAVYYCAAGSGGGDGLDVWGQGTLVTVSS VL: DIQMTQSPSSLSASVGDRVTITCRASQTISSYLNWYQQKPGKAPKLLIYSSSTLQGGVPSRFSGSGSGTDFTLTISSLQPEDFATYYCQQSYSSGTFGQGTKVEIK
Result: 3.3

Request: Fill in Ratio: KD with MTX / KD without MTX for record P16_E06 scFv-Fc fusion (scFv, V domains shown, Tested as scFv-Fc fusion) VH: QVQLVESGGGLVQAGGSLRLSCAASRRSSRSWAMHWVRQAPGKGLEWVAVISYDGRLKYYADSVKGRFTISRDNAEYLVYLQMNSLRAEDTAVYYCAAEGGDYPGTSDGGLDIWGQGTLVTVSS VL: DIQMTQSPSSLSASVGDRVTITCRASQSISNYLNWYQQKPGKAPKLLIYGASSLQSGVPSRFSGSGSGTDFTLTISSLQPEDFATYYCQQSYSAGTFGQGTKVEIK
Result: 12.7

Request: Fill in Ratio: KD with MTX / KD without MTX for record P01_B02 scFv-Fc fusion (scFv, V domains shown, Tested as scFv-Fc fusion) VH: QVQLVESGGGLVQAGGSLRLSCAASRRSSRSWAMHWVRQAPGKGLEWVAVISYDGRLKYYADSVKGRFTISRDNAEYLVYLQMNSLRAEDTAVYYCAAADWYSGGGDALDIWGQGTLVTVSS VL: DIQMTQSPSSLSASVGDRVTITCRASQTIYNYLNWYQQKPGKAPKLLIYGASNLQSGVPSRFSGSGSGTDFTLTISSLQPEDFATYYCQQTYSSPTFGQGTKVEIK
Result: 0.1
